System: E. coli, ATCC8739
Protocol Notes: Antibacterial activity (MIC), E. coli
Type: cell-based
Protocol Conditions: Escherichia coli, ATCC8739, Table 1; E. coli ATCC8739; read-out: Antibacterial MIC (μM) E.Coli
Recorded Metric: MIC

Please review the entries below; each comes with its answer.
Nc1c(F)c(NCCCc2ccccc2)c(F)c2c1c(=O)ccn2C1CC1 [compound 13] ... 10 to 50 µM
Nc1c(F)c(NCCNc2cccc3ccccc23)c(F)c2c1c(=O)c(C(=O)O)cn2C1CCCC1 [compound 56] ... 10 to 50 µM
Nc1c(F)c(NCCc2ccncc2)c(F)c2c1c(=O)ccn2C1CCCC1 [compound 73] ... > 50 µM

IN: Any idea what its MIC is? The molecule is CC(C)OCCCNc1c(F)c(N)c2c(=O)ccn(CCc3ccccc3)c2c1F [compound 60]
OUT: 10 to 50 µM

###

For each record, write down the corresponding MIC.
Test system: S. aureus Smith
Protocol Notes: Antibacterial activity (MIC), S. aureus
Type: cell-based
Protocol Conditions: Staphylococcus aureus, Table 2; S. aureus Smith; read-out: Antimicrobial MIC [μM] S. aureus

Please review the entries below; each comes with its answer.
CC1COc2c(NCCCn3cnc4ccccc43)c(F)c(N)c3c(=O)c(C(=O)O)cn1c23 (centres unmarked) ... 0.5 to 10 µM
CC1(C)Cn2cc(C(=O)O)c(=O)c3c(N)c(F)c(NCCCc4ccccc4)c(c32)O1 ... 10 to 50 µM
CC1(C)COc2c(NCCc3ccncc3)c(F)c(N)c3c(=O)c(C(=O)O)cn1c23 ... 10 to 50 µM
CC1(C)COc2c(NCCCn3cnc4ccccc43)c(F)c(N)c3c(=O)c(C(=O)O)cn(c23)C1 ... 0.5 to 10 µM
NC1=C2C(=O)C(C(=O)O)=CN3CCCCOC(C(NCCNc4ccccn4)=C1F)C23 (centres unmarked) ... > 50 µM

Batch lookup, MIC per entry.
1. COc1c(NCCNc2ccc(C(=O)O)cn2)c(F)c(N)c2c(=O)ccn(C3CC3)c12
2. Nc1c(F)c(NCCCn2ccnc2)c2c3c1c(=O)c(C(=O)O)cn3CCO2

OUT:
["> 50 µM", "> 50 µM"]

IN: Any idea what its MIC is? The compound is "CC1(C)COc2c(NCCCn3ccnc3)c(F)c(N)c3c(=O)c(C(=O)O)cn1c23"
OUT: > 50 µM

###

For each record, write down the corresponding inhibition in vivo at 300 mg/kg.
Protocol Notes: Animal Study 2 (oral glucose tolerance test)
Design: species or system Crlj:CD1 (ICR) mice
Protocol Conditions: Mus musculus; Table 2; 300 mg/kg oral, ICR mice; plasma glucose 0.5 and 1 hr after glucose load vs vehicle; read-out: In vivo studies 300 mg/kg (oral glucose tolerance test, % decrease)

C[C@H]1COc2c(NCCCn3ccnc3)c(F)c(N)c3c(=O)c(C(N)=O)cn1c23 ... 10 to 20%

Batch lookup, inhibition in vivo at 300 mg/kg per entry.
1. Cc1nn(C)c(C)c1CCCNc1c(F)c(N)c2c(=O)c(C(=O)O)cn3c2c1OC[C@@H]3C
2. C[C@H]1COc2c(NCCNC3=NS(=O)(=O)c4ccccc43)c(F)c(N)c3c(=O)c(C(=O)O)cn1c23
3. C[C@H]1COc2c(NCCCNC(=O)C34CC5CC(CC(C5)C3)C4)c(F)c(N)c3c(=O)c(C(=O)O)cn1c23

OUT:
["> 20%", "< 5%", "5 to 10%"]
